- Test system: c-Src
- Experiment Notes: phosphorylation enrichment, bacterial display (enrichment ratio); higher = better substrate or ligand; peptides without Tyr show the background;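 also: 11-residue human phosphosite peptides and single-mutation variants displayed on the E. coli surface, counted by deep sequencing, each peptide's frequency after selection divided by its frequency in the unselected input library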;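 also: frequency after pTyr selection over input frequency; kinase dosed for 20-30% of maximal phosphorylation in three min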
Parameter threshold = 0.6. Response is true when phosphorylation enrichment meets or exceeds it, else false.

Study these solved cases before continuing.
DFLSSYSAVNE [OAT_Y85_Q90E] | false
NTGGFYDLFGG [PTPN11_Y63_D61G_YF] | true
QEALEYFMKQI [PIK3CA_Y1038_M1043I] | true
AQADIYKADFQ [IKBKG_Y308] | true
KRAIGYFSATS [FAM120A_Y327_YF] | false

Exercise: Does phosphorylation enrichment meet or surpass 0.6 for LEQDEYALRSH [HADHB_Y244] ?
Key: true

Exercise: For this sequence, is measured phosphorylation enrichment 0.6 or higher? EEQKRYFNAMK [SCN5A_Y1494_K1493R_YF]
Key: false

Exercise: Reported phosphorylation enrichment reaches at least 0.6 for CSHKFYGKQCC [ADAMTS16_Y1211] ?
Key: false

Exercise: phosphorylation enrichment >= 0.6 for DPGVSYCTREE [PDHA1_Y301_R302C] ?
Key: false

Exercise: Hi, just wondering whether MSRDVYSTDCY [NTRK2_Y702_Y706C] shows phosphorylation enrichment of 0.6 or higher.
Key: true

Exercise: # check: phosphorylation enrichment of GRPMDYHVSIT [OTOF_Y254_Q255H] is greater than or equal to 0.6
Key: false

Exercise: # bool: phosphorylation enrichment of CTIIHYNYMCN [TP53_Y234_T231I] >= 0.6
Key: false

---

The sequences listed here are annotated with their phosphorylation enrichment.
- Target Of Assay: EPHB2 (UniProt P29323)
- Sequence (P29323 whole entry, looked up): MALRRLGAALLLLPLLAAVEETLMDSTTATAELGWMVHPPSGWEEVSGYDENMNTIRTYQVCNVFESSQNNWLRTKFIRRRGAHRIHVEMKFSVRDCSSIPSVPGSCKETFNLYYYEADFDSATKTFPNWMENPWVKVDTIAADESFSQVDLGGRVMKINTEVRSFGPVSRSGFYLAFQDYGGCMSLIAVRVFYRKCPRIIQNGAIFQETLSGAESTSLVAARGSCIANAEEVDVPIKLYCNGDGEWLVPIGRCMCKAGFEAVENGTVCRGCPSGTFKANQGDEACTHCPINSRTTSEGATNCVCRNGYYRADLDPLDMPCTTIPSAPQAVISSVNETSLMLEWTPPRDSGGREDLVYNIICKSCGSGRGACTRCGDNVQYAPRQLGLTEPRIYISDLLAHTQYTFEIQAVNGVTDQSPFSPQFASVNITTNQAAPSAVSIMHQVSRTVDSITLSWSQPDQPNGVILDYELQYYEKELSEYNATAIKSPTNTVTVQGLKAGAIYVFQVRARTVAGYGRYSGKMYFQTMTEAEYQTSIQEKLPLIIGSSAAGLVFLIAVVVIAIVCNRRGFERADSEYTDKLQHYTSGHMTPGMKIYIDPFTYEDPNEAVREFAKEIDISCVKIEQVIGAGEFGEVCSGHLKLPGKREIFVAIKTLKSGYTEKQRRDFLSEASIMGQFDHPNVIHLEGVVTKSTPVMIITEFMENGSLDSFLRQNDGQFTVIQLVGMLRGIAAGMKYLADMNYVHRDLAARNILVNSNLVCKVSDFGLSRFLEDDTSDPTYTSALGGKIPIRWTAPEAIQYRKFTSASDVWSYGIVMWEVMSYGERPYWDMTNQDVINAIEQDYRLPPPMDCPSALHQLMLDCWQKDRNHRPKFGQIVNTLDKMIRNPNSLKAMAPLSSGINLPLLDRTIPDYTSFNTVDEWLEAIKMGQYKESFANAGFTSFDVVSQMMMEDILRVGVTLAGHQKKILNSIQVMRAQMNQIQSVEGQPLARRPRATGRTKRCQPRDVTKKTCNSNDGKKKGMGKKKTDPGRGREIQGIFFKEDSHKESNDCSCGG
- Experiment Notes: phosphorylation enrichment, bacterial display (enrichment ratio); higher = better substrate or ligand; peptides without Tyr show the background
Would you mind answering with just the numeric figure?

Recorded phosphorylation enrichment, per entry:
VPVNGYQPVPA [ROR2_Y824] | 0.391
AEYGLYRAMVR [VSX2_Y222_G223R] | 3.62
LGLTVYADCLA [ABCA4_Y2063] | 0.657

Exercise: Quick one: phosphorylation enrichment for KELAPYDENCF [RPS19_Y48_W52C] ?
Key: 0.696

Exercise: Please report the recorded phosphorylation enrichment for MHDSNYVSKGS [PDGFRA_Y849] .
Key: 0.416

---

- Target Of Assay: EPHB1 (UniProt P54762)
- Sequence (P54762 whole entry, looked up): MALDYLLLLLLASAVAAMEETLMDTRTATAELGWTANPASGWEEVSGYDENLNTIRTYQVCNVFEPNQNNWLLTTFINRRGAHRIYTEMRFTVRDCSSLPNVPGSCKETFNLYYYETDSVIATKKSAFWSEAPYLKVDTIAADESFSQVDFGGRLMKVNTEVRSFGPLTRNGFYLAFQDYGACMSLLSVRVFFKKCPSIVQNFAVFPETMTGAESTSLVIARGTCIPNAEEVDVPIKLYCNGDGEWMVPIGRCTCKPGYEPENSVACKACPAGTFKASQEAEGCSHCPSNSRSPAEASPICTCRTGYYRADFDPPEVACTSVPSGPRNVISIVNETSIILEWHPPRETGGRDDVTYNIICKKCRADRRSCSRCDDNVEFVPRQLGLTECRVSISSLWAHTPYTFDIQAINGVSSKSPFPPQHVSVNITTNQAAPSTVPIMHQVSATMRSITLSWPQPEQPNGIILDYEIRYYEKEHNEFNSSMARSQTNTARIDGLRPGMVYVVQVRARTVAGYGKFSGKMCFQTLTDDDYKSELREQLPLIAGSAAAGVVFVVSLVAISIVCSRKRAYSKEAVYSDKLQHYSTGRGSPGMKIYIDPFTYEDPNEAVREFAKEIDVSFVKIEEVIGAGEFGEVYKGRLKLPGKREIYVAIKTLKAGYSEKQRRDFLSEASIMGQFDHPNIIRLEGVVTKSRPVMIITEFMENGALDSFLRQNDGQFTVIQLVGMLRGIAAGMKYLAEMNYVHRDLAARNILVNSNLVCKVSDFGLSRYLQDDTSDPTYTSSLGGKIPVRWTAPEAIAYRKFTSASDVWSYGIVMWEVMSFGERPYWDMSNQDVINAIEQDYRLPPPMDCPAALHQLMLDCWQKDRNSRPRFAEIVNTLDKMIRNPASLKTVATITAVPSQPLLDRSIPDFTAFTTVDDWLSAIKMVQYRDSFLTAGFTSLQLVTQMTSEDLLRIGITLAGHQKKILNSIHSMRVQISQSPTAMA
- Experiment Notes: phosphorylation enrichment, bacterial display (enrichment ratio); higher = better substrate or ligand; peptides without Tyr show the background
Outcome Measure: phosphorylation enrichment
Write the number on its own, no unit after it.

The following sequences have reported results that may help.
FQEPVYSVAFS [TBL1X_Y509_H504Y_YF] | 18.1
TSQSQYSSFRE [CCDC170_Y323_F324S] | 0.51
IETGRYEILTE | 0.595
RLEGVYRNNID [PTEN_Y46] | 0.478
EQMASYFGHSV [ITGA2B_Y319] | 0.44

Exercise: Give the measured phosphorylation enrichment of DPGVSYCTREE [PDHA1_Y301_R302C] .
Key: 0.643

Exercise: For the sequence shown here, LIPIKYKAMKK [MYD88_Y257] , give the reported phosphorylation enrichment.
Key: 0.55

Exercise: So what does the record say about phosphorylation enrichment for KPGVNYYFRVS ?
Key: 0.534
